# system: Pantothenate synthetase (Mycobacterium tuberculosis (strain ATCC 25618 / H37Rv)) (UniProt P9WIL5)
# Sequence (P9WIL5 whole entry, looked up): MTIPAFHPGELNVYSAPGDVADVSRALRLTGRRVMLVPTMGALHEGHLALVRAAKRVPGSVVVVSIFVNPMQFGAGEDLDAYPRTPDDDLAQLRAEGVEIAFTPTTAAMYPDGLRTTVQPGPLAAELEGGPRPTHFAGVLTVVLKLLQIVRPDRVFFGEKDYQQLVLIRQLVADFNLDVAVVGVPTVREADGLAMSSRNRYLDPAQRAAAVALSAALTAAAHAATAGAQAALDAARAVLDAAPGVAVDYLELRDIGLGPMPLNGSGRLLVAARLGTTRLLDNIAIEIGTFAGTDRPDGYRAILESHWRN
# test method notes: Coupled enzyme confirmation of inhibitors against recombinant Mtb PanC (AID 375);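 note: 0% = full reaction with vehicle and 100% = no enzyme background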
# study conditions: coupled enzyme assay; at 10 µM, stronger effect = higher value
Kindly state inhibition for each of the entries shown.
Express your answer in %, writing the number without its unit.

q: Could you tell me which inhibition is on file for `CC(C)Cn1c(N)c(C(=O)NCc2cccs2)c2nc3ccccc3nc21` ?
a: 1

q: Next: `Cc1cc(NC(=O)c2cc(-c3ccco3)on2)n(-c2ccccc2)n1`
a: 0

q: Try the molecule `N#CC(C(=O)Nc1ccc(Cl)c(Cl)c1)=C1Nc2ccccc2N1`
a: 2

q: Next up: COc1ccc(C2/C(=C(/O)c3ccc(OC(C)C)cc3)C(=O)C(=O)N2CCCN2CCOCC2)cc1 (configuration not stated)
a: 0

q: Also need CCOC(=O)c1ccc(NC(=O)CC2SC(=NC)N(C)C2=O)cc1 (configuration not stated) , thanks.
a: 2

q: Also check `CN1CCN(C(=O)CN(Cc2ccc(Cl)cc2)S(C)(=O)=O)CC1`
a: 4

q: Now consider `O=P1(O)C=C(c2ccccc2)NC(c2ccccc2)=C1` and answer again.
a: 0

q: Also, `CCOC(=O)c1oc2ccccc2c1CSc1nnnn1-c1ccc(OC)cc1` please.
a: 1

q: Field entry: CC(C)(C)NC(=O)C(c1ccco1)N(C(=O)Cn1nnc(-c2ccc(F)cc2)n1)c1ccccc1F (configuration not stated)
a: 5

q: Same read-out for `O=C(Nc1ccc2c(c1)OCO2)c1ccc(CN2CCOCC2)cc1` ?
a: 1

q: // same read-out, input: `Cc1cc(NC(=O)COc2cccc(Oc3ccccc3)c2)no1`
a: 8

q: Now consider `Cc1cnc(C(=O)OCC(=O)Nc2ccc(Oc3ccccc3)cc2)cn1` .
a: 0

q: For `O=C(c1ccc(Br)o1)N1CCN(c2ccc3nnc(-c4ccccc4)n3n2)CC1` then?
a: 1

q: Moving on to the next molecule: `O=C(c1ccccc1-c1ccccc1)N1CCN(c2ccccn2)CC1`
a: 0

q: Then what about the molecule `Cc1c(CCC#N)c(N2CCN(C3CCCCC3)CC2)n2c(nc3ccccc32)c1C#N` ?
a: 3

q: Next: `COc1ccc(CCNC(=O)C2CCN(Cc3nc(-c4cccc(Cl)c4)oc3C)CC2)cc1OC`
a: 0

q: Ok, now `COc1cccc(-c2nc(CS(=O)(=O)CC(=O)NCc3ccc(Cl)cc3)c(C)o2)c1`
a: 0

q: Note, next up: `CCC(=O)Nc1ccc(F)c(Cl)c1`
a: 6

q: What do we get for `O=C(c1cc2ccccc2oc1=O)N1CCN(c2ccc(N3CCOCC3)nn2)CC1` ?
a: 0

q: Next entry: `Cc1ccc(-n2nc(C(=O)N3CCN(C)CC3)c3c4ccccc4n(C)c3c2=O)cc1`
a: 0

q: Follow-up item: `Cc1ccc(C)c(N2CCN(CCCNC(=O)Cn3cc4c(n3)CCCCC4)CC2)c1`
a: 2

q: Now consider `Cc1ccc(OCc2nnc(SCC(=O)N3CCOCC3)n2C)cc1` and answer again.
a: 0

###

# system: Pantothenate synthetase (Mycobacterium tuberculosis (strain ATCC 25618 / H37Rv))
# test method notes: Coupled enzyme confirmation of inhibitors against recombinant Mtb PanC (AID 375);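 note: 0% = full reaction with vehicle and 100% = no enzyme background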
# study conditions: coupled enzyme assay; at 10 µM, stronger effect = higher value
# inhibition >= 1% gives true, anything below gives false

q: Reported inhibition reaches at least 1% for `Cc1ccc(-n2c3c(cc(C(=O)O)c2=O)C(=O)CC(C)(C)C3)cc1` ?
a: true

q: Would you kindly repeat that for `CCCCc1ccc(NC(=O)COCC)cc1` ?
a: false

q: For `COC(=O)Nc1sccc1C(=O)Nc1sccc1C(=O)OC` then?
a: false

q: Also, `COc1ccc(NC(=O)CSc2nnc(-c3ccccc3)n2N)cc1` please.
a: false

q: Entry to check: `O=C(NCCN1CCCCC1)c1ccc(=O)oc1`
a: true

q: Param item: CCOc1ccc(N(CC(=O)NCC2CCCO2)S(=O)(=O)c2ccc(OC)c(OC)c2)cc1 (configuration not stated)
a: false

q: Please give the result for `Cc1cc(C(=O)CSc2nc3ccccc3[nH]2)c(C)n1C` too.
a: true

q: And then `CCOC(=O)c1c(C)[nH]c(C(=O)CSc2nc3ccccc3o2)c1C` , what is it?
a: false

q: Same read-out for `CC(=O)Oc1ccc(-c2ccc(C(=O)O)cc2)cc1` ?
a: true

q: Field entry: `COc1ccc(NC(=O)c2cnc3n(c2=O)CCS3)cc1OC`
a: false

q: What about `CN(C)/C=c1\sc2c(C#N)cc(C(=O)c3ccc(Br)cc3)n2c1=O` ?
a: true
